Target: KRAS WT (Homo sapiens, UniProt P01116+P62937)
Sequence (P01116 1-169 isoform P01116-2 limits assumed): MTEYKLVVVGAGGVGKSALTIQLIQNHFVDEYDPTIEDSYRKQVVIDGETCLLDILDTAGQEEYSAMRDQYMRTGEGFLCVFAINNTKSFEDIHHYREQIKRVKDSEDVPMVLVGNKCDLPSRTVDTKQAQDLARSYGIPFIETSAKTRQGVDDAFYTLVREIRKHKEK
Sequence (P62937 whole entry): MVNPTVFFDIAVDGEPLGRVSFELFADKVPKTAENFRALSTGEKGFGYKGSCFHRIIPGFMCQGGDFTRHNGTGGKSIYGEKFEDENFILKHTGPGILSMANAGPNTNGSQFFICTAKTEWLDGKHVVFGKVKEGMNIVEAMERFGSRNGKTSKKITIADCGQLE
Assay: Disruption of BRAF RBD interaction with Ras (FRET / MOA assay, with Cyclophilin A)
Type: biochemical
Settings: KRAS WT; read-out: KRAS WT FRET data IC50
pIC50: −log10 of the molar value.
outcome.measure: pIC50

{"compound": "CCn1c(-c2cnccc2COC)c2c3cc(ccc31)-c1cc(O)cc(c1)C[C@H](NC(=O)[C@H](C(C)C)N1CCCCC1=O)C(=O)N1CCC[C@H](N1)C(=O)OCC(C)(C)C2", "pIC50": "6.00 to 7.00"}
{"compound": "CCn1c(-c2cccnc2[C@H](C)OC)c2c3cc(ccc31)-c1csc(n1)C[C@H](NC(=O)[C@H](C(C)C)N(C)C(=O)N1CCC(C(=O)C(F)(F)F)CC1)C(=O)N1CCC[C@H](N1)C(=O)OCC(C)(C)C2", "pIC50": "7.00 to 8.00"}
{"compound": "CCn1c(-c2cccnc2[C@H](C)OC)c2c3cc(ccc31)-c1csc(n1)C[C@H](NC(=O)[C@H](C(C)C)N(C)C(=O)N1CCOC3(CN(C)C3)C1)C(=O)N1CCC[C@H](N1)C(=O)OCC(C)(C)C2", "pIC50": "6.00 to 7.00"}
{"compound": "CCn1c(-c2cccnc2[C@H](C)OC)c2c3cc(ccc31)-c1csc(n1)C[C@H](NC(=O)[C@H](C(C)C)N(C)C(=O)N1C[C@H](OC)[C@@H](N)C1)C(=O)N1CCC[C@H](N1)C(=O)OCC(C)(C)C2 (atropisomer, axis not shown)", "pIC50": "6.00 to 7.00"}

Exercise: # lookup: pIC50 of "CCn1c(-c2cccnc2[C@H](C)OC)c2c3cc(ccc31)-c1csc(n1)C[C@H](NC(=O)[C@H](C(C)C)N(C)C(=O)N1CC3CC(C1)N3C)C(=O)N1CCC[C@H](N1)C(=O)OCC(C)(C)C2"
Key: 6.00 to 7.00
